The values you see were collected from the supplement of paper PMC8728848.

# target-desc: Neu5Ac(a2-3)Gal(b1-3)GlcNAc(b1-4)Gal(b1-4)Glc
# test-name: glycan array binding signal (z-score within array); higher = stronger binding
# assay-setup: glycan notation: IUPAC condensed, linker removed
The full list was thinned out, with the strongest signals kept by preference.
quantity-measured: glycan array binding signal (z-score)

MGL (Homo sapiens), Q8IUN9 (protein) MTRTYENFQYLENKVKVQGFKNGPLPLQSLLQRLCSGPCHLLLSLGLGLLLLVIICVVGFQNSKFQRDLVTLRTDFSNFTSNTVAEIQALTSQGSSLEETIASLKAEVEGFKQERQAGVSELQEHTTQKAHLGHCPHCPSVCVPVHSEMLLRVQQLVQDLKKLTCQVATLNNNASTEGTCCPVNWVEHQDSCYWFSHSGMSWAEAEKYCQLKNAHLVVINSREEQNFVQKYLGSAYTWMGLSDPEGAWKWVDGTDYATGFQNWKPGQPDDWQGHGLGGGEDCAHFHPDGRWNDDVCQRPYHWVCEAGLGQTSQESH	-0.251
SynCAM (Mus musculus) (protein) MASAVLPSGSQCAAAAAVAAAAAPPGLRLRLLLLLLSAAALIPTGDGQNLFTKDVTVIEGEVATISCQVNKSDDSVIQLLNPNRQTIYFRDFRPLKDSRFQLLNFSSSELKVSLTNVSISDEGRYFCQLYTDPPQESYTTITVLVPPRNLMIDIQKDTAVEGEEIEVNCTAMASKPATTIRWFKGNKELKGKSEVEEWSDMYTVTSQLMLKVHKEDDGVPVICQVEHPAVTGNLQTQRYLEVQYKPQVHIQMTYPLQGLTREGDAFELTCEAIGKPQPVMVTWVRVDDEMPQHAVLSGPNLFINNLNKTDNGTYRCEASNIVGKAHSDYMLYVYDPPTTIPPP	-0.756
Cohesin-marm-DC-ASGPR-CRD (protein) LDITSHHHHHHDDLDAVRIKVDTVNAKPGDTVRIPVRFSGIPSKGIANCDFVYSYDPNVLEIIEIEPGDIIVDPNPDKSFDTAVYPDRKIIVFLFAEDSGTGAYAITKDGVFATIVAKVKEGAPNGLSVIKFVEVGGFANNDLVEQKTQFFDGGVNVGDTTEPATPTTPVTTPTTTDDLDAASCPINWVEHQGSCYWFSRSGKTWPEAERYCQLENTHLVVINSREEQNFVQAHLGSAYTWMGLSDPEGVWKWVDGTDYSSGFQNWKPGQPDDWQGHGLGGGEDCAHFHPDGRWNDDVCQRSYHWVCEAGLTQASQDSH	-0.449

Quick request: glycan array binding signal (z-score) for each listed item, please.
1. OrysaEULS2 (Oryza sativa) (protein) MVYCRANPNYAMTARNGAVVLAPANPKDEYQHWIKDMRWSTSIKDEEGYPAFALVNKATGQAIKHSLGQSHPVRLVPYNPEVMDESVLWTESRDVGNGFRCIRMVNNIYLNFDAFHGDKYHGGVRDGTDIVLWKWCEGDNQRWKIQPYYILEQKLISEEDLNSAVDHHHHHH
2. CLEC5A (Homo sapiens), Q9NY25 (protein) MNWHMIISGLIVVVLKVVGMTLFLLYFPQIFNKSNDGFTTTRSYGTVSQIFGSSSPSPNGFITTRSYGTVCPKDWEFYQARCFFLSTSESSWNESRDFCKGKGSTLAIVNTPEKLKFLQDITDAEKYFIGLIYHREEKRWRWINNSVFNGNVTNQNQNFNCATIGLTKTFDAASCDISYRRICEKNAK
3. Cohesin-hDECTIN-1 (Homo sapiens) (protein) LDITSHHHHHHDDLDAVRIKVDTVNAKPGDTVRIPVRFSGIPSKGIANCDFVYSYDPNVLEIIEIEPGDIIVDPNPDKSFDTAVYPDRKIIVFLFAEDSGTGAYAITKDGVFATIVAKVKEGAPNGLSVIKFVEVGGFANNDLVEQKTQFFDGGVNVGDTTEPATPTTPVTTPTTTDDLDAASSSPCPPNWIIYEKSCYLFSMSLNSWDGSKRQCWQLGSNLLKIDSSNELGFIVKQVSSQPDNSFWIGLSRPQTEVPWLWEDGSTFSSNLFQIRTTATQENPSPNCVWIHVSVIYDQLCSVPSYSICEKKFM

RESULT:
1: -0.24; 2: -0.012; 3: -0.22
